assay-target: EGFR (d746-750 C797S) (Homo sapiens, UniProt P00533, C797S/DEL746-750)
Construct: purchased signalchem
Sequence (P00533 with tags, fused parts or gaps DEL746-750/C797S limits assumed): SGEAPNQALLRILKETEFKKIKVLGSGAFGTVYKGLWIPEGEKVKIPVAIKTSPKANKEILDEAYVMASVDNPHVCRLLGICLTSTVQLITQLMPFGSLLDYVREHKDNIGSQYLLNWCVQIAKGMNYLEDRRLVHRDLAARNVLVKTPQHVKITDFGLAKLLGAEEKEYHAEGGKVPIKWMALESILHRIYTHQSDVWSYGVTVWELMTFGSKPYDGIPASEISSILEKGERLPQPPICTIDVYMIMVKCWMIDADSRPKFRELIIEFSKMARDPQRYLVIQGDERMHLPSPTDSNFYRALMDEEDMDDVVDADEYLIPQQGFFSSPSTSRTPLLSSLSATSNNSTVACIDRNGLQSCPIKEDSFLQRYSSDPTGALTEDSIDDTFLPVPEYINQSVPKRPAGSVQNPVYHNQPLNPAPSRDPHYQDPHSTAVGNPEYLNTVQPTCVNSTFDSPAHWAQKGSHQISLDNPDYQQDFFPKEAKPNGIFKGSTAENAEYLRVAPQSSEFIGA
run-description: Inhibition of EGFR (d746-750 C797S) biochemical enzymatic activity (HTRF)
reported-conditions: EGFR Del19-C797S, 1 mM ATP, 1 h, room temperature, read-out: IC50 (nM) @Del19-C797S
observation-type: IC50 (nM)

[[record]]
molecule = "Cn1ncc2c1OCCN1CC3CCC(C3)(C1)n1c(nc3ccc(N4CCN(C5COC5)CC4)cc31)NC(=O)c1cc-2c(=O)n(C)c1 (single isomer, unassigned) [Example A71B]"
measurement_units = "nM"
numeric_result = 1.3

[[record]]
molecule = "C[C@@H]1CCCOc2c(cnn2C)-c2cc(cn(C)c2=O)C(=O)Nc2nc3ccc(N4CCC5(CN(C)C5)C4)cc3n2C1"
measurement_units = "nM"
numeric_result = 2.2

[[record]]
molecule = "Cn1ncc2c1OCCN1CC3CCC(C3)(C1)n1c(nc3ccc(N4CCOCC4)cc31)NC(=O)c1cc-2c(=O)n(C)c1 (single isomer, unassigned) [Example A62B]"
measurement_units = "nM"
numeric_result = 1.4


A: CN1CCN(C2CCN(c3ccc4nc5n(c4c3)C34CCC(CN(CCOc6c(cnn6C)-c6cc(cn(C)c6=O)C(=O)N5)C3)C4)CC2)CC1 (single isomer, unassigned) [Example A106B]
B: Cn1ncc2c1OCCN1CC3CCC(C3)(C1)n1c(nc3ccccc31)NC(=O)c1cc-2c(=O)n(C)c1 (stereo not shown) [Example A61B]
C: CN(C)CCC1CN(c2ccc3nc4n(c3c2)C23CCC(CN(CCOc5c(cnn5C)-c5cc(cn(C)c5=O)C(=O)N4)C2)C3)C1 (single isomer, unassigned) [Example A95B]
D: CN1CCN(C2CCN(c3ccc4nc5n(c4c3)C34CCC(CN(CCOc6c(cnn6C)-c6cc(cn(C)c6=O)C(=O)N5)C3)C4)C2)CC1 (single isomer, unassigned) [Example A80A2]
# desc sort on IC50 across 4 molecules Sort the labels as requested; that list is your answer.
D, B, C, A
(D: 530 nM, B: 2.5 nM, C: 1.5 nM, A: 1 nM)
